experimentalTarget: MTH1 (Homo sapiens, UniProt P36639)
experimentDescription: Steady-state kinetics of MTH1 hydrolysis of 8-oxo-dGTP (Lineweaver-Burk plot)
Format: biochemical
conditionSet: 8-oxo-dGTP hydrolysis in the presence of inhibitor; 10–250 μM 8-oxo-dGTP, 2 nM MTH1, 37 °C
For each record, write down the corresponding kcat.

Please review the following examples before continuing.
smilesRecord	kcat
Nc1nc2c(c(Br)c(Br)n2[C@H]2C[C@H](O)[C@@H](COP(=O)(O)OP(=O)(O)OP(=O)(O)O)O2)c(=O)[nH]1	9.4 s⁻¹
Nc1nc2c(c(I)c(I)n2[C@H]2C[C@H](O)[C@@H](COP(=O)(O)O)O2)c(=O)[nH]1	10.7 s⁻¹

Continue with the next molecule.
Looking for the measured kcat of `Nc1nc2c(c(Br)c(Br)n2[C@H]2C[C@H](O)[C@@H](COP(=O)(O)O)O2)c(=O)[nH]1` , can you help? 9.1 s⁻¹
